z-score values for the molecules below.
- target.or.test.system: Luciferin 4-monooxygenase (Photinus pyralis) (UniProt P08659)
- Sequence (P08659 whole entry, looked up): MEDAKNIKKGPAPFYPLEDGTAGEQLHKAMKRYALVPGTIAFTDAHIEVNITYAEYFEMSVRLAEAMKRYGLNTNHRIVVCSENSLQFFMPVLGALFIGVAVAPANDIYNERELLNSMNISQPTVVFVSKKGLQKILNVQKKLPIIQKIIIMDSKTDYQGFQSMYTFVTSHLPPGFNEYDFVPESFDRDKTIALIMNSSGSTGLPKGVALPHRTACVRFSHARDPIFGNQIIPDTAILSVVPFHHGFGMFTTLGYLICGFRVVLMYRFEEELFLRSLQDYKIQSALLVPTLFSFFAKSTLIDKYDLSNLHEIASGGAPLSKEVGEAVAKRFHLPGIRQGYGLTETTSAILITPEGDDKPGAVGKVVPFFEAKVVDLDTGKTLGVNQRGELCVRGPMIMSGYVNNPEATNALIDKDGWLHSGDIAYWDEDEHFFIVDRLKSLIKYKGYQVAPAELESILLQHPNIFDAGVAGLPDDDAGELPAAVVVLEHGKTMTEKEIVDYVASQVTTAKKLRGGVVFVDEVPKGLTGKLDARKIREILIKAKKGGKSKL
- assay.info: firefly luciferase enzyme inhibitors, primary screen, biochemical, luminescence, purified enzyme, 2006 set (AID 1141);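 also: cell-free assay with purified firefly luciferase at 100 ng per well in PBS; test concentration not given here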
- protocol.conditions: SteadyGlo luminescence, 30 min, higher = more signal, called active from +8 up or from −8 down
The source made the active and inactive calls.

C=C(CCCC)C(=O)CC[C@@H](OC(C)=O)c1ccccc1OCCO; -1.33 (inactive)
CC1CC/C=C\[C@H]2OC34C=CCN(Cn5nnc6ccccc65)C(=O)[C@H]3N(C(C)CO)C(=O)[C@@H]4C2C(=O)O1 (stereo not given in full); -0.223 (inactive)

Value wanted: z-score (Luciferin 4-monooxygenase (Photinus pyralis) (UniProt P08659)) of entry C[C@@H]1NC(=O)[C@H](Cc2ccccc2)NC(=O)[C@@]23C(=O)N[C@@H](Cc4ccccc4)C2[C@H](C)[C@@]2(C)O[C@H]2C3/C=C/C/C=C\CNC1=O (stereo not given in full)
-0.0116 (inactive)

Value wanted: z-score (Luciferin 4-monooxygenase (Photinus pyralis) (UniProt P08659)) of entry O=C1OCC=C[C@H]2OC34C=CCN(Cc5ccccc5)C(=O)[C@H]3N(CCCCCO)C(=O)[C@@H]4[C@@H]12 (stereo not given in full)
-0.423 (inactive)

Value wanted: z-score (Luciferin 4-monooxygenase (Photinus pyralis) (UniProt P08659)) of entry Cc1ccc(N2C(=O)c3ccccc3[C@@H](C(=O)NCC(F)(F)F)[C@@H]2c2ccc(CO)cc2)nc1
-0.642 (inactive)

Value wanted: z-score (Luciferin 4-monooxygenase (Photinus pyralis) (UniProt P08659)) of entry CO[C@H]1COC(=O)[C@@H](OCc2ccccc2)C=C[C@H](C)[C@@H](OC)COC(=O)[C@H](OCc2ccccc2)C=C[C@@H]1C
-1.99 (inactive)

Value wanted: z-score (Luciferin 4-monooxygenase (Photinus pyralis) (UniProt P08659)) of entry CC(C)CNC(=O)[C@@]1(C)c2ccccc2C(=O)N(Cc2ccc(OC(F)(F)F)cc2)[C@H]1c1ccc(CO)cc1
-1.22 (inactive)

Value wanted: z-score (Luciferin 4-monooxygenase (Photinus pyralis) (UniProt P08659)) of entry C=CCN1C(=O)[C@@]2(O[C@@H](CCn3cc([C@H](O)c4ccccc4)nn3)[C@H]([Si](C)(C)c3ccc(OC)cc3)[C@H]2C)c2cc(N3CCOC3=O)ccc21
-0.731 (inactive)

Value wanted: z-score (Luciferin 4-monooxygenase (Photinus pyralis) (UniProt P08659)) of entry CC(C)(C)OC(=O)CC[C@]1(C(=O)NCCN2CCOCC2)N=C(c2ccc(OCCCO)cc2)O[C@H]1c1ccccc1CN=[N+]=[N-]
-0.736 (inactive)

Value wanted: z-score (Luciferin 4-monooxygenase (Photinus pyralis) (UniProt P08659)) of entry CO[C@H]1COC(=O)CC=C[C@@H](C)COC(=O)[C@@H](C)NC(=O)CC=C[C@@H]1C
-1.37 (inactive)

Value wanted: z-score (Luciferin 4-monooxygenase (Photinus pyralis) (UniProt P08659)) of entry C=CCNC(=O)[C@@H]1[C@H]2C(=O)O[C@H](c3ccccc3)[C@H](c3ccccc3)N2[C@H](c2ccc(OCCO)cc2)[C@@]12C(=O)N(C(=O)OCCOC)c1ccc(C#CC3(O)CCCCCC3)cc12
-2.35 (inactive)

Value wanted: z-score (Luciferin 4-monooxygenase (Photinus pyralis) (UniProt P08659)) of entry CCCNC(=O)[C@@H]1c2ccccc2C(=O)N(Cc2cc(F)cc(C(F)(F)F)c2)[C@H]1c1ccc(CO)cc1
-0.747 (inactive)

Value wanted: z-score (Luciferin 4-monooxygenase (Photinus pyralis) (UniProt P08659)) of entry C=CCc1cccc([C@H]2N[C@H](C(=O)O)CC[C@@H]2C)c1
-0.42 (inactive)

Value wanted: z-score (Luciferin 4-monooxygenase (Photinus pyralis) (UniProt P08659)) of entry COC(=O)[C@@]1(Cc2ccccc2)[C@H]2c3cc(C(=O)N4CCCC4)n(CCN4CNCC4=O)c3C[C@H]2CN1C(=O)c1ccccc1
2.42 (inactive)

Value wanted: z-score (Luciferin 4-monooxygenase (Photinus pyralis) (UniProt P08659)) of entry C[C@]1(C(=O)NCCN2CCOCC2)c2ccccc2C(=O)N(Cc2ccccc2)[C@H]1c1ccc(CO)cc1
1.47 (inactive)

###

- Test system: Plasmodium falciparum Sir2 (PF13_0152, Sir2A)
- assay.info: pfSir2 binders on small-molecule microarrays, primary screen, biochemical, small-molecule microarray, 635 nm fluorescence (AID 1098);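 also: score merges spot fluorescence intensity with its signal-to-noise ratio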
- protocol.conditions: small-molecule microarray binding, fluorescence 635 nm; higher = more signal
Please use Y whenever composite z-score is not below 1, and N whenever it is.

Known results for compounds:
O=C1C2C=CC(C(O)c3ccccc3)N(n3cnnc3)C2C(=O)N1Cc1ccccc1 (configuration not stated); N
O=C(NCC(F)(F)F)[C@@H]1c2ccccc2C(=O)N(Cc2ccccc2Cl)[C@H]1c1ccc(CO)cc1; Y
COc1ccc([Si](C)(C)[C@H]2[C@H](CCO)O[C@@]3(C(=O)N(Cc4ccc(N5CCCCC5=O)cc4)c4ccccc43)[C@@H]2C)cc1; Y
C=C(CCCC)/C(=C/C[C@@H](OC(=O)c1ccncc1)c1cccc(OCCO)c1)c1cc(C(=O)OC)ccc1OC; N
CN(C)C(=O)[C@@]1(Cc2ccccc2N=[N+]=[N-])N=C(c2ccc(OCCCO)cc2)O[C@H]1c1ccccc1CN=[N+]=[N-]; Y

hey, is composite z-score for this one >= 1? CCOC(=O)C[C@H]1[C@H](OC(=O)Cc2ccc3c(c2)OCO3)[C@@H](NC(=O)CC(C)C)c2cc(OCCCO)ccc2N1C(=O)c1ccccc1
N

hey, is composite z-score for this one >= 1? COc1ccc(NN2C(C(O)c3cc(OC)c(OC)c(OC)c3)C=CC3C(=O)N(C4CCCCC4)C(=O)C32)cc1 (configuration not stated)
N

###

- target.or.test.system: Albumin (Bos taurus) (UniProt P02769)
- Sequence (P02769 whole entry, looked up): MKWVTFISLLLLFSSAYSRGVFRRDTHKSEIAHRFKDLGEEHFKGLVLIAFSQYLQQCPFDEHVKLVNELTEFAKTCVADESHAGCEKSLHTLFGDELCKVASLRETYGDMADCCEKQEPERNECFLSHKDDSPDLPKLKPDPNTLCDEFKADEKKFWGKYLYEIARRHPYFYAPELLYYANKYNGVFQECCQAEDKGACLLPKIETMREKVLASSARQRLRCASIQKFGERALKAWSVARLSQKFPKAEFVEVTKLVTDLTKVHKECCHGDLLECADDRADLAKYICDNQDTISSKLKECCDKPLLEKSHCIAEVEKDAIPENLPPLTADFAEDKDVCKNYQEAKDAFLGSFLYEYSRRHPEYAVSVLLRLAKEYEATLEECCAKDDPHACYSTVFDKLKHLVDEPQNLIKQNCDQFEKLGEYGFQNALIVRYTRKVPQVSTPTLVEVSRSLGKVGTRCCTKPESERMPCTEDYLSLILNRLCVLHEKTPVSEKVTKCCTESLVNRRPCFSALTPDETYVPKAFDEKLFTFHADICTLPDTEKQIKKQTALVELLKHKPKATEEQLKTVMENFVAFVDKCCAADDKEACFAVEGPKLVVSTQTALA
- assay.info: bovine serum albumin binders on microarray, profiling panel, artefact control for SMM control protein annotation, biochemical, small-molecule microarray, Alexa647 label, 635/667 nm fluorescence (AID 1118);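 also: score merges 667 nm emission intensity and signal-to-noise per printed compound spot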
- protocol.conditions: BSA-A647 binding, fluorescence 635 nm, higher = more signal
Please use Satisfied whenever composite z-score is not below 0.8, and Not satisfied whenever it is.

hey, is composite z-score for this one >= 0.8? C=C(COC)/C(=C/C[C@@H](OC(C)=O)c1cccc(OCCO)c1)c1cc(C(=O)OC)ccc1OC
Not satisfied

hey, is composite z-score for this one >= 0.8? CCOC(=O)[C@H]1C/C=C/C[C@H](C(=O)OCC)C(=O)O[C@H]2[C@@H](OC)O[C@H](CO)[C@@H](OC(=O)Nc3ccc(Br)cc3)[C@@H]2OC1=O
Satisfied

hey, is composite z-score for this one >= 0.8? CCN1C(C)=C(C(=O)OC)[C@@H](c2ccccc2)N2C(=O)[C@@]3(C(=O)OC)O[C@@]12[C@@H]1C(=O)N(c2ccccc2)C(=O)[C@@H]13
Satisfied

hey, is composite z-score for this one >= 0.8? Cc1ccc(S[C@]2(C(=O)NCCCN(C)C)CC(=O)N(Cc3ccccc3)[C@@H]2c2ccc(CO)cc2I)cc1
Not satisfied

hey, is composite z-score for this one >= 0.8? [N-]=[N+]=NCc1ccccc1C[C@@]1(C(=O)N2CCOCC2)N=C(c2ccc(OCCCO)cc2)O[C@@H]1c1ccccc1N=[N+]=[N-]
Satisfied

hey, is composite z-score for this one >= 0.8? CC(C)(C)OC(=O)CC[C@@]1(C(=O)NCc2ccccc2)N=C(c2ccc(OCCCO)cc2)O[C@@H]1c1ccccc1
Satisfied

hey, is composite z-score for this one >= 0.8? CCCN1C(=O)[C@@]2(CCS(=O)(=O)c3ccccc3)N=C(c3ccc(OCCCO)cc3)O[C@H]2c2ccccc21
Not satisfied

hey, is composite z-score for this one >= 0.8? Cc1ccc(N2C(=O)c3ccccc3[C@](C)(C(=O)O)[C@@H]2c2ccc(CO)cc2)nc1
Not satisfied

hey, is composite z-score for this one >= 0.8? C=CCNC(=O)[C@H]1[C@@H]2C(=O)O[C@@H](c3ccccc3)[C@@H](c3ccccc3)N2[C@@H](c2ccccc2OCCO)[C@]12C(=O)N(C(=O)OCCOC)c1ccc(C#CCNC(N)=O)cc12
Not satisfied

hey, is composite z-score for this one >= 0.8? C=CCNC(=O)[C@H]1[C@@H]2C(=O)O[C@@H](c3ccccc3)[C@@H](c3ccccc3)N2[C@@H](c2ccc(O)cc2)[C@]12C(=O)Nc1ccc(C#CCNC(N)=O)cc12
Not satisfied

hey, is composite z-score for this one >= 0.8? CC(C)C[C@@H]1NC(=O)[C@H](CC(C)C)NC(=O)[C@@]23C(=O)N[C@@H](Cc4ccccc4)C2[C@H](C)[C@@]2(C)O[C@H]2C3/C=C/CC/C=C/CNC1=O (some centres undefined)
Not satisfied

hey, is composite z-score for this one >= 0.8? CO[C@H]1COC(=O)[C@H](C)NC(=O)CC=C[C@@H](C)[C@H](NS(=O)(=O)c2ccc(C)cc2)COC(=O)[C@@H](OCc2ccccc2)C=C[C@@H]1C
Not satisfied

hey, is composite z-score for this one >= 0.8? CC1CC/C=C\[C@H]2OC34C=CCN(Cn5nnc6ccccc65)C(=O)[C@H]3N(C(C)CO)C(=O)[C@@H]4C2C(=O)O1 (some centres undefined)
Not satisfied

hey, is composite z-score for this one >= 0.8? C=CCC(OC(C)=O)[C@@H]1[C@@H](N(Cc2cc3ccccc3o2)C(=O)Cc2ccc(F)cc2)c2cc(OCCCO)ccc2N1C(=O)c1ccc(-c2ccccc2)cc1 (some centres undefined)
Not satisfied

hey, is composite z-score for this one >= 0.8? O=C(NCC(O)CO)[C@]1(Cc2ccccc2)N=C(c2ccc(OCCCO)cc2)O[C@@H]1c1ccccc1 (some centres undefined)
Satisfied
